# METHOD SUMMARY: NCI Yeast Anticancer Drug Screen. Data for the cln2 rad14 strain (AID 165);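 note: 0% = growth equal to vehicle treated cultures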
# CONDITION DESCRIPTION: S. cerevisiae cln2 rad14 strain, at 50.0 µM, hits give high values
# Protocol: Growth inhibition of yeast strains with defined genetic alterations is measured as a screen for potential anti-cancer activity. Selected strains with alterations in DNA damage repair or cell cycle control were exposed to compounds and growth inhibition was measured relative to vehicle treated controls. The strain used in this assay is cln2 rad14
About 79,000 compounds went through this panel and 15% of them were active in at least one assay; those are over-represented in the sample as a whole.
RECORDED METRIC: growth inhibition (%)
Respond with the bare value in %.

Here is how some molecules turned out for growth inhibition.
# MOLECULE, growth inhibition / %
rows = [
    ("CN(CCc1ccccn1)/[N+]([O-])=N/O (tested in a mixture with another compound)", 11.2),
    ("CC(=O)Nc1cc(C)cc(Br)c1", 9.05),
    ("O=C(Nc1ccccc1)Oc1ccc(Cl)cc1Cc1ccccc1", 99.8),
]

Ask: Item under review: C=C1C2CC(OC(C)=O)C3(C)C(c4ccoc4)OC(=O)[C@@H](O)[C@]13OC1C[C@H](OC(C)=O)C(C)(C)[C@H](C(O)C(=O)OC)[C@]12C (stereo not given in full) . Reported growth inhibition?
Result: 3.45

Ask: Another molecule to look at: `CC(=O)NCS(=O)(=O)O`
Result: -34
